All figures here come from ChEMBL document CHEMBL1157870.

system: Rattus norvegicus; assay: Antiinflammatory activity against carrageenan-induced paw edema in po dosed rat administered 1 hr before carrageenan challenge assessed after 1 hr; assay type: functional
Below is a list of entries, each paired with its recorded inhibition (INH) value.
The answer consists of two parts: a number and, after it, its unit.

mol.smiles: Clc1ccc(OCc2nnc3n2N=C(c2ccccc2)CS3)c(Cl)c1
measure.name: inhibition (INH)
reported.value: 27.66%

Noted for Clc1ccc(OCc2nnc3snnn23)c(Cl)c1 : its inhibition (INH) reads 70.78%

Record Clc1ccc(OCc2nnc3sc(-c4ccco4)nn23)c(Cl)c1 . Reported inhibition (INH): 51.38%

In plain terms, Clc1ccc(OCc2nnc3n2N=C(c2cc4ccccc4o2)/C(=C/c2cn(-c4ccccc4)nc2-c2cc4ccccc4o2)S3)c(Cl)c1 has a documented inhibition (INH) of 29.71%

Please fill in: inhibition (INH) reported for COc1ccc(-c2nn3c(COc4ccc(Cl)cc4Cl)nnc3s2)cc1 = 26.75%

Recorded inhibition (INH) (compound O=[N+]([O-])c1ccc(-c2nn3c(COc4ccc(Cl)cc4Cl)nnc3s2)c([N+](=O)[O-])c1 ): 32.16%

// inhibition (INH) value for Clc1ccc(OCc2nn3c(COc4ccc(Cl)cc4Cl)nnc3s2)c(Cl)c1 : 26.95%

The recorded inhibition (INH) for COc1ccc2c(c1)c(CC(=O)O)c(C)n2C(=O)c1ccc(Cl)cc1 is 24.8%

Documented inhibition (INH) of Nn1c(S)nnc1COc1ccc(Cl)cc1Cl : 50%

====

tested on: Rattus norvegicus; experiment: Antiinflammatory activity against carrageenan-induced paw edema in po dosed rat administered 1 hr before carrageenan challenge assessed after 3 hrs; type: functional
Entries annotated with measured inhibition (INH)
Express your answer in %, writing the number without its unit.

mol.smiles: Clc1ccc(OCc2nnc3snnn23)c(Cl)c1
inhibition (INH) (%): 108.482

# inhibition (INH) of Clc1ccc(OCc2nnc3n2N=C(c2cc4ccccc4o2)/C(=C/c2cn(-c4ccccc4)nc2-c2cc4ccccc4o2)S3)c(Cl)c1 = 59.66

What the record says about COc1ccc(-c2nn3c(COc4ccc(Cl)cc4Cl)nnc3s2)cc1 : inhibition (INH) is 56.34

Reported inhibition (INH) ( COc1ccc2c(c1)c(CC(=O)O)c(C)n2C(=O)c1ccc(Cl)cc1 ) = 26.29

response.value for O=[N+]([O-])c1ccc(-c2nn3c(COc4ccc(Cl)cc4Cl)nnc3s2)c([N+](=O)[O-])c1 (field: inhibition (INH)) = 68.04

# compound Clc1ccc(OCc2nnc3sc(-c4ccco4)nn23)c(Cl)c1 ; its inhibition (INH) = 99.24

Consider Nn1c(S)nnc1COc1ccc(Cl)cc1Cl . Its measured inhibition (INH) is 102.8511

For reference, reported inhibition (INH) for Clc1ccc(OCc2nn3c(COc4ccc(Cl)cc4Cl)nnc3s2)c(Cl)c1 stands at 63.15

Recorded result, Clc1ccc(OCc2nnc3n2N=C(c2ccccc2)CS3)c(Cl)c1 , inhibition (INH): 60.42
